- Test System: T1, cynomolgus monkey ANGPTL4 N-terminal region (amino acid residues 1-130 of SEQ ID NO:490) with a C-terminal … (cynomolgus monkey (Macaca fascicularis), UniProt Q9BY76 26-130 (human entry))
- T1 construct: also called MfANGPTL4(1-130)-His
- T1 chain: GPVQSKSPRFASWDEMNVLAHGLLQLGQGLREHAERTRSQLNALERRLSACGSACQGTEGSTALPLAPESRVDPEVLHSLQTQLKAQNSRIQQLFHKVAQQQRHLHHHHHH
- Experimental Details: SPR (Biacore), 25° C., pH 7.2, antigen amino-coupled 1,028 RU
- Protocol: Kinetic analysis was performed to measure kₐ and kd, and KD values and half-life of antigen/antibody complex dissociation were calculated. The results are shown in Table 4 (H1H268P) and Table 5 (H1H284P).
Reported Property: t1/2 (h)
Record the value in h, omitting the unit from your answer.

Worked examples follow.
H1H284P (antibody, V domains shown, also called entire H1H284 mAb; Full mAb) VH: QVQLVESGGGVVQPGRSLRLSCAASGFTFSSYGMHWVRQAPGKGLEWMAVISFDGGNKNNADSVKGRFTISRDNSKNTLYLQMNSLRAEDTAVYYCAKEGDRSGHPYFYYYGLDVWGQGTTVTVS VL: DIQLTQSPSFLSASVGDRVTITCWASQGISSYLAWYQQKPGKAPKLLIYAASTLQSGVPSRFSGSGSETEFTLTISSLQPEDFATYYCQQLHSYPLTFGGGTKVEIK = 3.3
H1H268P Fab fragment (Fab, V domains shown, Fab made by papain digestion of H1H268P (IgG1); also called H1H268 Fab) VH: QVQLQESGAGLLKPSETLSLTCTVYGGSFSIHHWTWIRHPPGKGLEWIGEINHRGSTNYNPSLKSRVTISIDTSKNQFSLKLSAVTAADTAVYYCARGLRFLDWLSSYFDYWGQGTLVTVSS VL: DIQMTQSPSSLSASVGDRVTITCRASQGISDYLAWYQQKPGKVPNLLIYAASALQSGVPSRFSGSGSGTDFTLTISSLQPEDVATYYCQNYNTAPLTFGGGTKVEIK = 0.117
H1H268P (antibody, V domains shown, also called entire H1H268 mAb; Full mAb) VH: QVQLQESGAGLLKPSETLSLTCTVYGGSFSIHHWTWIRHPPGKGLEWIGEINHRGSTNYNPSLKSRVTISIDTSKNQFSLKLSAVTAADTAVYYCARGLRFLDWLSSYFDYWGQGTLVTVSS VL: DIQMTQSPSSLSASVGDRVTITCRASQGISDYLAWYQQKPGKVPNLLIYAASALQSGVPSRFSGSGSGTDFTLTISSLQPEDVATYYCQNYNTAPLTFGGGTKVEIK = 4.05

Let us examine a further case.
Task: Item under review: H1H284P Fab fragment (Fab, V domains shown, Fab made by papain digestion of H1H284P (IgG1); also called H1H284 Fab) VH: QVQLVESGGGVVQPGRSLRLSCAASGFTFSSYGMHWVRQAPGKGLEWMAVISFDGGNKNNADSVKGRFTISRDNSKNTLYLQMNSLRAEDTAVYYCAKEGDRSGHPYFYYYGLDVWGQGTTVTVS VL: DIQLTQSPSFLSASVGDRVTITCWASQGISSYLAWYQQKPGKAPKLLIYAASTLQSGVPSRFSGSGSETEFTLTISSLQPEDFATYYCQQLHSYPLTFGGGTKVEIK . Reported t1/2?
Output: 0.0667
